The reported measurements were obtained from PubChem BioAssay AID1159580.

- ASSAY_SUMMARY: chemical genetic growth profiling, strain panel (AID 1159580);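 further: tested at 20 µM; growth read once vehicle control cultures reached saturation at 30 °C; 1 = growth at the plate median or of vehicle wells; lower values mean less growth of the strain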
- CONDITIONS: S. cerevisiae deletion strains, growth OD, locus YHR013C, strain ard1, hits give low values
Out of some 5,500 compounds screened, about 2,000 (36%) were called active. Roughly 18% stayed inconclusive and do not appear here. Some of the results follow.
Parameter: normalized growth. Scope: all listed entries.
OUTCOME_MEASURE: normalized growth

Cc1cc(C(C)(C)C)cc(C)c1CC1=NCCN1	0.971
NC1C[C@H]1c1ccccc1 (some centres not stated)	0.962
Cc1cc(C(C)(C)C)c(O)c(C)c1CC1=NCCN1	1.01
Cc1cc(=O)n(-c2ccccc2)n1C	0.982
CC(=O)N[C@@H](Cc1c[nH]c2ccccc12)C(=O)O	0.952
c1ccc2c(Cc3c[nH]c4ccccc34)c[nH]c2c1	0.617
CCOc1cccc(C(=O)c2ccc(O)c(O)c2O)c1	0.81

* * *

- ASSAY_SUMMARY: chemical genetic growth profiling, strain panel (AID 1159580);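 further: tested at 20 µM; growth read once vehicle control cultures reached saturation at 30 °C; 1 = growth at the plate median or of vehicle wells; lower values mean less growth of the strain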
- CONDITIONS: S. cerevisiae deletion strains, growth OD, locus YNR052C, strain pop2, hits give low values
The campaign covered roughly 5,500 compounds. About 2,000 (36%) were called active. Not shown: some 18% with an inconclusive outcome. This is one part of the list.
Parameter: normalized growth. Scope: all listed entries.
OUTCOME_MEASURE: normalized growth

O=C(OC[C@H]1O[C@H](OC(=O)c2cc(O)c(O)c(OC(=O)c3cc(O)c(O)c(O)c3)c2)[C@H](OC(=O)c2cc(O)c(O)c(OC(=O)c3cc(O)c(O)c(O)c3)c2)[C@@H](OC(=O)c2cc(O)c(O)c(OC(=O)c3cc(O)c(O)c(O)c3)c2)[C@@H]1OC(=O)c1cc(O)c(O)c(OC(=O)c2cc(O)c(O)c(O)c2)c1)c1cc(O)c(O)c(OC(=O)c2cc(O)c(O)c(O)c2)c1	0.0934
NC[C@H]1O[C@H](O[C@H]2[C@H](O)[C@@H](O[C@H]3O[C@H](CO)[C@@H](O)[C@H](N)[C@H]3O)[C@H](N)C[C@@H]2N)[C@H](N)C[C@@H]1O	1.01
NC[C@H]1O[C@H](O[C@H]2C(O[C@@H]3O[C@H](CO)[C@@H](O)[C@H]3O)[C@@H](O)[C@H](N)C[C@@H]2N)[C@H](N)[C@@H](O)[C@@H]1O (stereo partly specified)	0.992
C#C[C@]1(O)CCC2C3CCC4=Cc5oncc5C[C@]4(C)C3CC[C@@]21C (stereo partly specified)	0.956
NCC1OC(OC2C(CO)OC(OC3C(O)C(N)CC(N)C3OC3OC(CO)C(O)CC3N)C2O)C(N)C(O)C1OC1OC(CO)C(O)C(O)C1O (stereo unspecified)	0.991
CC[C@H]1CN2CCc3cc(OC)c(OC)cc3C2C[C@@H]1CC1NCCc2cc(OC)c(OC)cc21 (stereo partly specified)	1
C[C@]12CCC(=O)C=C1CCC1C2[C@@H](O)C[C@@]2(C)C1CC[C@]2(O)C(=O)COC(=O)CCC(=O)O (stereo partly specified)	1
CC(=O)Oc1cccc2c1C(=O)c1c(OC(C)=O)cc(C(=O)O)cc1C2=O	0.135
O=c1[nH]cnc2c1ncn2C1O[C@H](CO)[C@@H](O)[C@H]1O (stereo partly specified)	1.02
CN[C@@H]1[C@@H](O[C@H]2O[C@H](CO)[C@@H](N)[C@H](O)[C@H]2O)O[C@H]2C[C@@H](N)[C@H](O[C@H]3[C@H](O)[C@@H](O)[C@H](N)C[C@@H]3N)O[C@@H]2[C@@H]1O	0.996
CC(=O)Oc1cccc(C(=O)O)c1OC(C)=O	1.01
CCOC([O-])=Nc1c[n+](N2CCOCC2)no1	0.989
C#CC1(O)CCC2C3CCC4=CC(=O)CCC4(C)C3CCC21C (stereo unspecified)	0.966
COc1ccc2c(c1)[C@]13CCCC[C@H]1[C@H](C2)N(C)CC3	0.992
CC(=O)[O][Hg][c]1ccccc1	0.0629
C[C@]12CCC(=O)C=C1CCC1C2C(=O)C[C@@]2(C)C1CC[C@]2(O)C(=O)CO (stereo partly specified)	1
